Experiment: Pharmacokinetic studies in rats (plasma, brain, CSF)
Type: in vivo
Conditions: male, Sprague Dawley, rat, 25 mg/kg; plasma, oral, rats; read-out: Oral Clearance Cl/F (converted)
Method: Male Sprague Dawley rats weighing approximately 200 g received test article (E19 or 82) as a single oral gavage (OG) dose of approximately 25 mg/kg (approximately 10 animals per group). All doses were administered as clear colorless solutions as in situ sodium salts in 5% (m/v) dextrose:2% (v/v) ethanol in DWI. All dose solutions were delivered at 2 mL/kg. Animals were fasted for at least 4 hours before dosing, and for 2 hours after dosing. […]
Give CL/F for every item shown.
Answers are plain numbers, in L/h/kg.

O=C(Nc1ccc2c(c1)B(O)OC2)c1ccc(F)cc1C(F)(F)F [E19] :: 0.261

Moving on to another compound below.
input: Consider the compound CC1(C)OB(O)c2cc(NC(=O)c3ccc(F)cc3C(F)(F)F)ccc21 [compound 82] and give its measured CL/F.
output: 0.092
